- targetUnderTest: T1, human PD-1 (construct not stated) (human, UniProt Q15116 25-167, limits assumed)
- T1 construct: also called PD-1 analyte
- T1 sequence (Q15116 25-167 limits assumed): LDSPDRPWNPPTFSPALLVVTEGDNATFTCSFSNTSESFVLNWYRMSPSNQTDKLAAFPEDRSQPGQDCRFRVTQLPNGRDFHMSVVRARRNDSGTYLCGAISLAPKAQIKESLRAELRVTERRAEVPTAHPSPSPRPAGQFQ
- assayProtocol: Biacore, antibody captured, PD-1 analyte
reportedMetric: koff (s⁻¹)

- 15H5 murine anti-PD-1 antibody (antibody, V domains shown, Purified hybridoma antibody; also called 15H5-mIgG1) VH: EVKLVESGGGLVKPGGSLKLSCAASGFAFRSYDMSWVRQTPEKILEWVATISGGGSYTYYQDSVKGRFTISRDNARNTLYLQMSSLRSEDTALYYCASPYGPYFDYWGQGTTLTVSS VL: DIQMNQSPSSLSASLGDTITITCHASQSINVWLSWYQQKPGNIPKLLIYRASNLHTGVPSRFSGSGSGTGFTLTISSLQPDDIATYYCQQGQSYPWTFGGGTKLEIKR: 3.67e-05
- 7A4 murine anti-PD-1 antibody (antibody, V domains shown, Purified hybridoma antibody; also called 7A4-mIgG1) VH: QIHLVQSGPELKKPGETVKISCKASGYTFTNFGMNWVKQAPGKGLKWMGWISGYTREPTYAADFKGRFAISLETSASTAYLQINDLKNEDMATYFCARDVFDYWGQGTTLTVSS VL: DIVLTQSPASLAVSLGQRATISCRASESVDNYGYSFMNWFQQKPGQPPKLLIYRASNLESGIPARFSGSGSRTNFTLTINPVEADDVATYFCQQSNADPTFGGGTNLEIKR: 4.82e-05
- 5A8 murine anti-PD-1 antibody (antibody, V domains shown, Purified hybridoma antibody; also called 5A8-mIgG1) VH: QVQLQQSGDELVRPGTSVKMSCKAAGYTFTNNWIGWVKQRPGHGLEWIGDFYPGGGYTNYNEKFKGKATLTADTSSSTAYMQLSSLTSEDSAIYYCARGYGTNYWYFDVWGAGTTVTVSS VL: NIVMTQTPKILFISAGDRVTITCKASQSVSNDVAWYQQKPGQSPKLLIYYAFTRYIGVPDRFTGSGYGTDFTFTISTVQAEDLAVYFCQQDYSSPYTFGGGTKLEIKR: 7.55e-05
- 13F1 murine anti-PD-1 antibody (antibody, V domains shown, Purified hybridoma antibody; also called 13F1-mIgG1) VH: DVQLQESGPGLVKPSQSLSLTCTVTGYSITSDYAWNWIRQFPGNQLEWMAYISYSGYTSYNPSLKSRISITRDTSKNQFFLQLNSVTTEDTATYYCARSLDYDYGTMDYWGQGTSVTVSS VL: QIVLSQSPAILSASPGEKVTMTCRANSSVSSMHWYQQKPGSSPEPWIYAISNLAFGVPTRFSGSGSGTSYSLTISRVEAEDAATYFCQQWSSRPPTFGGGTKLEIKR: 3.92e-05
- 4C10 murine anti-PD-1 antibody (antibody, V domains shown, Purified hybridoma antibody; also called 4C10-mIgG1) VH: QVQLKQSGPGLVQPSQNLSVTCTVSGFSLTTYGVHWVRQSPGKGLEWLGVIWSGGSTDYNAAFISRLTISKDNARSQVFFKMNSLQVNDTAMYYCAREKSVYGNYVGAMDYWGQGTSVTVSS VL: SIVMTQTPKFLLVSAGDRVTITCKASQSVSDDVAWYQQKPGQSPKLLIYYAFNRYTGVPDRFTGSGYGTDFTFTISTVQSEDLAVYFCQQDYRSPWTFGGGTKLEIKR: 2.63e-05
